# subject_of_test: KRas G12D (Homo sapiens (Human), UniProt P01116, G12D)
# experiment: KRas G12D Binding Assay (TR-FRET displacement of Cy5 labelled tracer)
# experimental_context: GDP-loaded KRAS G12D (amino acids 1:169), 60 minute incubation at 22° C.
# Method: After a 60 minute incubation at 22° C., the reaction was measured using a PerkinElmer EnVision multimode plate reader via TR-FRET dual wavelength detection, and the percent of control (POC) calculated using a ratiometric emission factor. […] The POC values were fit to a 4-parameter logistic curve and the IC50 value was determined as the concentration where the curve crosses 50 POC. ND stands for “not determined.”
# Sequence (P01116 other isoform, or with tags, fused parts or gaps G12D): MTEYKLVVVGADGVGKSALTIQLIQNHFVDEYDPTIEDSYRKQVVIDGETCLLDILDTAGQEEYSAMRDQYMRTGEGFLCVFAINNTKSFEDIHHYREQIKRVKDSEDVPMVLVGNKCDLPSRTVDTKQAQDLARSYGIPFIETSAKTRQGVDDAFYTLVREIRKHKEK
Classify: rule met when IC50 is strictly less than 400 nM; rule not met when IC50 is not.

Fc1c(-c2cccc3cccc(Cl)c23)ncc2c(N3C[C@H]4CC[C@@H](C3)N4)nc(OCCc3cccnc3)nc12; rule not met

Answer whether the compound Oc1cc(-c2ncc3c(N4C[C@H]5CC[C@@H](C4)N5)nc(OC4CCC(F)(F)CC4)nc3c2F)c2ccccc2c1 has IC50 strictly less than 400 nM rule not met

---

# subject_of_test: KRas G12D (Homo sapiens (Human), UniProt P01116, G12D)
# experiment: KRas G12D Surface Plasmon Resonance (SPR) Binding Assay
# experimental_context: Biacore T200, immobilized biotinylated KRAS protein, 1:1 binding model
# Sequence (P01116-2 other isoform, or with tags, fused parts or gaps G12D): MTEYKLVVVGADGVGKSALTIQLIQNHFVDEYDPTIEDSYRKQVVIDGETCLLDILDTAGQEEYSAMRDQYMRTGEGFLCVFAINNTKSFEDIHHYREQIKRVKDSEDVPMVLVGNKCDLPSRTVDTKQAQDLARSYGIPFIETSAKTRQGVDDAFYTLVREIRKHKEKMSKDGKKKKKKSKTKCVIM
readout_name: Kd
Write your answer as a measured quantity: the number, then the unit.

Before answering, review these 2 worked examples.
OCC(CO)COc1nc(N2C[C@H]3CC[C@@H](C2)N3)c2cnc(-c3cccc4cccc(Cl)c34)c(F)c2n1 [Example 35]; 1380 nM
O=C(O)CCOc1nc(N2C[C@H]3CC[C@@H](C2)N3)c2cnc(-c3cccc4cccc(Cl)c34)c(F)c2n1 [Example 61]; 116 nM

# Kd measured on KRas G12D (Homo sapiens (Human), UniProt P01116, G12D) for item CC1CCc2cccc(-c3ncc4c(N5CC6CCC(C5)N6)nc(OC[C@@H]5CCCN5C)nc4c3F)c21 (stereo partly shown) [Example 174] = 186 nM

Assay KRas G12D (Homo sapiens (Human), UniProt P01116, G12D), sample CN1CCC[C@H]1COc1nc(N2C[C@H]3CC[C@@H](C2)N3)c2cnc(-c3cccc4cccc(Cl)c34)cc2n1 [Example 123] , Kd read: 786 nM

The compound Fc1c(-c2cccc3cccc(Cl)c23)ncc2c(N3C[C@H]4CC[C@@H](C3)N4)nc(OCCc3cccnc3)nc12 [Example 113] , tested on KRas G12D (Homo sapiens (Human), UniProt P01116, G12D), showed Kd of 2500 nM

Considering Fc1ccc2cccc(-c3ncc4c(N5C[C@H]6CC[C@@H](C5)N6)nc(OCCc5cccnc5)nc4c3F)c2c1 [Example 90] , its Kd with KRas G12D (Homo sapiens (Human), UniProt P01116, G12D) was recorded as 7810 nM

---

# subject_of_test: KRas G12D (Homo sapiens (Human), UniProt P01116, G12D)
# experiment: KRas G12D Binding Assay (TR-FRET displacement of Cy5 labelled tracer)
# experimental_context: GDP-loaded KRAS G12D (amino acids 1:169), 60 minute incubation at 22° C.
Counter-ions that a name gives are not always drawn.
Let's look at some compounds and their measured IC50.
Kindly provide the numeric value in nM only, without the unit symbol.

Some solved cases for reference:
COCCNC(=O)O[C@@H]1C[C@@H](COc2nc(N3C[C@H]4CC[C@@H](C3)N4)c3cnc(-c4cccc5cccc(Cl)c45)c(F)c3n2)N(C)C1 [Example 280]; 99.8
Cc1ccc2sc(N)nc2c1-c1ncc2c(N3C[C@H]4CC[C@@H](C3)N4)nc(OCC34CCCN3CCC4)nc2c1F [Example 458]; 143
Cc1ccc2[nH]ncc2c1-c1ncc2c(N3CC4CCC(C3)N4)nc(OCC34CCCN3C[C@H](F)C4)nc2c1F (mixture of isomers) [Example 331]; 114
CN(C)Cc1ccc(COCCNC(=O)O[C@@H]2C[C@@H](COc3nc(N4C[C@H]5CC[C@@H](C4)N5)c4cnc(-c5cccc6cccc(Cl)c56)c(F)c4n3)N(C)C2)cc1 [Example 308]; 117
CN1CCC[C@H]1COc1nc(N2C[C@H]3CC[C@@H](C2)N3)c2cnc(-c3cc(O)cc4ccccc34)cc2n1 [Example 1, tris-hydrochloride salt]; 125

Kindly note the recorded IC50 for NCC#Cc1cccc2cccc(-c3ncc4c(N5C[C@H]6CC[C@@H](C5)N6)nc(OCC56CCCN5CCC6)nc4c3F)c12 [Example 241] , which is 79.2

---

Reported IC50 values follow for various molecules
# subject_of_test: KRas G12D (Homo sapiens (Human), UniProt P01116, G12D)
# experiment: KRas G12D Binding Assay (TR-FRET displacement of Cy5 labelled tracer)
# experimental_context: GDP-loaded KRAS G12D (amino acids 1:169), 60 minute incubation at 22° C.
Kindly provide the numeric value in nM only, without the unit symbol.

Completed entries (count: 4):
CN1C[C@H](NC(=O)c2ccccc2C=O)C[C@H]1COc1nc(N2C[C@H]3CC[C@@H](C2)N3)c2cnc(-c3cccc4cccc(Cl)c34)c(F)c2n1; 870
Cn1ccc(COc2nc(N3C[C@H]4CC[C@@H](C3)N4)c3cnc(-c4cc(O)cc5ccccc45)c(F)c3n2)n1; 1520
CN1CCC[C@H]1COc1nc(N2C[C@H]3CC[C@@H](C2)N3)c2cnc(-c3cccc4c3C3(CC4)CC3)c(F)c2n1 [Example 162, bis(2,2,2-trifluoroacetate)]; 677
OCc1nccn1CCOc1nc(N2CC3CCC(C2)N3)c2cnc(-c3cccc4cccc(Cl)c34)c(F)c2n1; 757

Let us examine a further case.
Value of IC50 reported for the molecule Cc1cc2sc(N)nc2c(-c2ncc3c(N4C[C@H]5CC[C@@H](C4)N5)nc(OCC45CCCN4CCC5)nc3c2F)c1C is 966

---

# subject_of_test: KRas G12D (Homo sapiens (Human), UniProt P01116, G12D)
# experiment: KRas G12D Surface Plasmon Resonance (SPR) Binding Assay
# experimental_context: Biacore T200, immobilized biotinylated KRAS protein, 1:1 binding model
Label key: T means Kd under 700 nM; F means Kd of 700 nM or more.

Below, 10 molecules whose answers are already recorded.
Fc1c(-c2cccc3cccc(Cl)c23)ncc2c(N3C[C@H]4CC[C@@H](C3)N4)nc(OCCc3cn4ccccc4n3)nc12; F
CCOC(=O)CCCOc1nc(N2C[C@H]3CC[C@@H](C2)N3)c2cnc(-c3cccc4cccc(Cl)c34)c(F)c2n1; F
Oc1cc(-c2ncc3c(N4C[C@H]5CC[C@@H](C4)N5)nc(OCCc4ccccc4F)nc3c2F)c2ccccc2c1; F
COCCN1CCC(Oc2nc(N3C[C@H]4CC[C@@H](C3)N4)c3cnc(-c4cccc5ccccc45)c(F)c3n2)CC1; F
Oc1cc(-c2ncc3c(N4C[C@H]5CC[C@@H](C4)N5)nc(OCC4CCCC4)nc3c2F)c2ccccc2c1; F
CCO[C@@H]1C[C@@H](COc2nc(N3C[C@H]4CC[C@@H](C3)N4)c3cnc(-c4cccc5cccc(Cl)c45)c(F)c3n2)N(C)C1; T
Cc1cccc2cccc(-c3cc4nc(OC[C@@H]5CCCN5C)nc(N5C[C@H]6CC[C@@H](C5)N6)c4cn3)c12; F
CC(C)N1CCC[C@H]1COc1nc(N2C[C@H]3C[C@@H](O)[C@@H](C2)N3)c2cnc(-c3cccc4cccc(Cl)c34)c(F)c2n1; T
CN1CCC[C@H]1COc1nc(N2CC3CCC(C=O)(C2)N3)c2cnc(-c3cc(O)cc4ccccc34)c(F)c2n1 (stereo partly shown); T
COCCCN1CCC(Oc2nc(N3C[C@H]4CC[C@@H](C3)N4)c3cnc(-c4cc(O)cc5ccccc45)c(F)c3n2)CC1; T

Kd strictly < 700 nM for this molecule? Oc1cc(-c2ncc3c(N4C[C@H]5CC[C@@H](C4)N5)nc(OC4CCOCC4)nc3c2F)c2ccccc2c1 T

Does this molecule meet the criterion Kd < 700 nM? Fc1c(-c2cccc3cccc(Cl)c23)ncc2c(N3C[C@H]4CC[C@@H](C3)N4)nc(OC[C@@H]3CCCN3Cc3ccccc3)nc12 F

Criterion: Kd strictly below 700 nM. Is it met by Oc1cc(-c2ncc3c(N4C[C@H]5CC[C@@H](C4)N5)nc(OC[C@@H]4CCCN4Cc4ccccc4)nc3c2F)c2ccccc2c1 ? T

Hello, I'm reviewing records and need to know if Kd of OCCCOc1nc(N2C[C@H]3CC[C@@H](C2)N3)c2cnc(-c3cc(O)cc4ccccc34)c(F)c2n1 is below 700 nM. Could you check? T

Input CC(Oc1nc(N2C[C@H]3CC[C@@H](C2)N3)c2cnc(-c3cc(O)cc4ccccc34)c(F)c2n1)C1CCCN1C (stereo partly shown) ; condition: Kd strictly below 700 nM. Does it hold? T

Strictly below 700 nM: is that where Kd of Cn1ccnc1COc1nc(N2C[C@H]3CC[C@@H](C2)N3)c2cnc(-c3cc(O)cc4ccccc34)c(F)c2n1 sits? T

Please indicate whether the reported Kd of CN1CCC[C@H]1COc1nc(N2C[C@H]3CC[C@@H](C2)N3)c2cnc(-c3cc(O)c(Br)c4ccccc34)c(F)c2n1 is strictly below 700 nM. T

Does the reported Kd of the following molecule sit strictly below 700 nM? COc1ccc(CCOc2nc(N3C[C@H]4CC[C@@H](C3)N4)c3cnc(-c4cccc5cccc(Cl)c45)c(F)c3n2)cn1 F

API: query returns whether the molecule falls strictly under 700 nM in Kd. Query: CN1CCC[C@H]1COc1nc(N2C[C@H]3CC[C@@H](C2)N3)c2cnc(-c3cccc4c3C(C)(C)CC4)c(F)c2n1 [Example 161, bis(2,2,2-trifluoroacetate)] T

API: query returns whether the molecule falls strictly under 700 nM in Kd. Query: CN(C)CCOc1nc(N2C[C@H]3CC[C@@H](C2)N3)c2cnc(-c3cccc4cccc(Cl)c34)c(F)c2n1 F

Lab log: compare recorded Kd with 700 nM; is it strictly lower for CN1C[C@H](F)C[C@H]1COc1nc(N2C[C@H]3CC[C@@H](C2)N3)c2cnc(-c3cc(O)cc4ccccc34)c(F)c2n1 ? T
